# TARGET: human GSK3α (Homo sapiens)
# Construct: Full length human GSK3α or GSK3B expressed as N-terminal GST fusion proteins; GST (N); purchased Carna Biosciences (Japan); host or cells: baculovirus host
# Sequence (P49840 whole entry, the tested form may be a part): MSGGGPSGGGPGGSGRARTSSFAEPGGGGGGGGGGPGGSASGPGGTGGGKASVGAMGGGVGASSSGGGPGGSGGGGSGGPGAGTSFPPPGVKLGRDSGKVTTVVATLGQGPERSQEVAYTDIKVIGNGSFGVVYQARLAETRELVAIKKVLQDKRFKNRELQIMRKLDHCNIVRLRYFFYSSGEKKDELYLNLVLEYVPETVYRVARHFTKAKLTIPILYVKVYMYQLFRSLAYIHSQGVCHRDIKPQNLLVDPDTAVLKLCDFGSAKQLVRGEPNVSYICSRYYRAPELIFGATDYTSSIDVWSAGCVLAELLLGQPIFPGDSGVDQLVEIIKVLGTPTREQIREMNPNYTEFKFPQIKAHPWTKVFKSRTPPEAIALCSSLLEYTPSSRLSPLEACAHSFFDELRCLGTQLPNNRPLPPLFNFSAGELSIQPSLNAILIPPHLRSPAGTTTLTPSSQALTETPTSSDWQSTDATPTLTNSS
# METHOD DESCRIPTION: In vitro enzymatic activity assay, GSK3α
# Type: biochemical
# TEST SETTINGS: 1.0 mM ATP, 1.0 μM peptide substrate, 120 min, 25° C, read-out: Enzyme GSK3α (IC50)
ATTRIBUTE MEASURED: pIC50
Field pIC50 (float): negative decimal logarithm of the concentration in molar.

Problem: Tell me the measured pIC50 of CCOc1cc(Cl)c(-n2cnc(N)c(C(=O)Nc3cncc(C(N)COC)c3)c2=O)c(Cl)c1 (single isomer, unassigned) , please.
Result: 8.47

Problem: Next: COC[C@](C)(N)c1cncc(NC(=O)c2c(N)ncn(-c3c(Cl)cc(OC)cc3Cl)c2=O)c1 (single isomer, unassigned)
Result: 8.16

Problem: Next: Cc1cc(C(F)F)cc(C)c1-n1cnc(N)c(C(=O)Nc2cncc([C@H]3CCCCN3)c2)c1=O
Result: 8.44

Problem: Next: CCOc1cc(C)c(-n2cnc(N)c(C(=O)Nc3cccc([C@H](N)COC)c3)c2=O)c(Cl)c1 (atropisomer, axis not shown)
Result: 8.12

Problem: Next: CCC(N)c1cncc(NC(=O)c2c(N)ncn(-c3c(C)cc(C(F)(F)F)cc3C)c2=O)c1 (single isomer, unassigned)
Result: 7.81

Problem: Next: CCOc1cc(Cl)c(-n2cnc(N)c(C(=O)Nc3cncc(CNCCS(C)(=O)=O)c3)c2=O)c(Cl)c1
Result: 7.97

Problem: Next: COc1cc(Cl)c(-n2cnc(N)c(C(=O)Nc3cnc(F)c([C@@H]4CCCCN4)c3)c2=O)c(Cl)c1 (single isomer, unassigned)
Result: 7.80

Problem: Next: COCc1cc(Cl)c(-n2cnc(N)c(C(=O)Nc3cncc(CNCCO)c3)c2=O)c(Cl)c1
Result: 8.35

Problem: Next: CCCOc1cc(Cl)c(-n2cnc(N)c(C(=O)Nc3cncc(CNCC)c3)c2=O)c(Cl)c1
Result: 8.18

Problem: Next: Cc1cccc(Cl)c1-n1cnc(N)c(C(=O)Nc2cccc([C@@H]3CCCN3)c2F)c1=O (single isomer, unassigned)
Result: 8.11

Problem: Next: CNCc1cncc(NC(=O)c2c(N)ncn(-c3c(Cl)cc(C(F)CF)cc3Cl)c2=O)c1 (single isomer, unassigned) [Example 116]
Result: 8.54

Problem: Next: Cc1cc(C(F)(F)F)cc(C)c1-n1cnc(N)c(C(=O)Nc2cncc(C3CCC(C)N3)c2)c1=O (single isomer, unassigned)
Result: 7.75

Problem: Next: CCOc1cc(Cl)c(-n2cnc(N)c(C(=O)Nc3cncc(C(C)N)c3)c2=O)c(Cl)c1 (single isomer, unassigned) [Example 137]
Result: 8.72

Problem: Next: COc1cc(Cl)c(-n2cnc(N)c(C(=O)Nc3cnnc(C4CCCCN4)c3)c2=O)c(Cl)c1 (single isomer, unassigned)
Result: 8.20

Problem: Next: COCc1cc(C)c(-n2cnc(N)c(C(=O)Nc3cncc([C@H]4CCC[C@H](C)N4)c3)c2=O)c(C)c1 (single isomer, unassigned)
Result: 7.78

Problem: Next: Nc1ncn(-c2c(Cl)cccc2Cl)c(=O)c1C(=O)Nc1cccc([C@@H]2CNC(=O)CN2)c1 (single isomer, unassigned) [Example 190]
Result: 7.42

Problem: Next: Nc1ncn(-c2c(Cl)cc(C(F)F)cc2Cl)c(=O)c1C(=O)Nc1cncc([C@@H]2COCCCN2)c1 (single isomer, unassigned)
Result: 8.51

Problem: Next: CCOc1cc(C)c(-n2cnc(N)c(C(=O)Nc3cncc(C4CCCCCN4)c3)c2=O)c(C)c1 (single isomer, unassigned)
Result: 8.01

Problem: Next: CN[C@@H](C)c1cncc(NC(=O)c2c(N)ncn(-c3c(Cl)cc(OC4CC4)cc3Cl)c2=O)c1 (single isomer, unassigned)
Result: 7.96

Problem: Next: CCOc1cc(C)c(-n2cnc(N)c(C(=O)Nc3cncc(C4CCC(C)N4)c3)c2=O)c(C)c1 (single isomer, unassigned) [Example 92]
Result: 7.79

Problem: Next: COC[C@@H](N)c1cccc(NC(=O)c2c(N)ncn(-c3c(Cl)cccc3C(F)F)c2=O)c1 (atropisomer, axis not shown)
Result: 8.12

Problem: Next: COC[C@@H](N)c1cncc(NC(=O)c2c(N)ncn(-c3c(Cl)cc(OC)cc3Cl)c2=O)c1
Result: 8.66

Problem: Next: Cc1cc(C(F)(F)F)cc(C)c1-n1cnc(N)c(C(=O)Nc2cncc(C3CCCC(C)N3)c2)c1=O (single isomer, unassigned)
Result: 7.81

Problem: Next: COc1cc(Cl)c(-n2cnc(N)c(C(=O)Nc3cncc(C4(N)CCCC4)c3)c2=O)c(Cl)c1
Result: 8.49

Problem: Next: CCCOc1cc(C)c(-n2cnc(N)c(C(=O)Nc3cncc([C@H]4CCCCN4)c3)c2=O)c(C)c1
Result: 8.31

Problem: Next: COc1cc(Cl)c(-n2cnc(N)c(C(=O)Nc3cncc4c3CCC43CCCN3)c2=O)c(Cl)c1 (centres unmarked)
Result: 8.74
